Biological target: GST-NTL8 NAC domain (Arabidopsis thaliana, UniProt Q9XIN7 14-156)
Sequence: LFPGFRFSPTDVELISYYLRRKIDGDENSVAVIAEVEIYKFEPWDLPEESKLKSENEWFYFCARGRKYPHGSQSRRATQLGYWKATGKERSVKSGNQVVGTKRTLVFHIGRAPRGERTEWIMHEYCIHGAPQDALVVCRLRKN
Test: universal protein binding microarray (PBM); transcription factors of Arabidopsis thaliana; high values mean tight binding
Settings: protein: recombinant; tags: GST; chain copies: 2; dsDNA, one strand shown
Reported binding signal is given for each of the following sequences.
Numbers only here, please. The scale is E-score.

The cases that follow already have their binding signal on record.
{"biopolymer_sequence": "GTGCCGTA", "reading_unit": "E-score", "binding signal": 0.102}
{"biopolymer_sequence": "GCTTTCCC", "reading_unit": "E-score", "binding signal": 0.423}
{"biopolymer_sequence": "GCGTATAA", "reading_unit": "E-score", "binding signal": 0.11}

The sequence `CACGCGAA` , when measured on GST-NTL8 NAC domain (Arabidopsis thaliana, UniProt Q9XIN7 14-156), yielded binding signal of 0.0576

# lookup: `AGGAAACG` on GST-NTL8 NAC domain (Arabidopsis thaliana, UniProt Q9XIN7 14-156), binding signal = 0.451

The value of binding signal recorded for `TTACGGAA` when tested on GST-NTL8 NAC domain (Arabidopsis thaliana, UniProt Q9XIN7 14-156) reads 0.128
